// data source = patent US20240158515A1

I'd be grateful if you could share measured 90 nM mfFGFR3b.mmH Bind (RU) for these entries.
Target: T1, cynomolgus FGFR3b expressed with a C-terminal myc-myc-hexahistidine tag (mfFGFR3b.mmH) (cynomolgus)
T1 construct: also called REGN3521; mf FGFR3b ecto (R357G)(E23-G377;R357G).mmH
T1 chain: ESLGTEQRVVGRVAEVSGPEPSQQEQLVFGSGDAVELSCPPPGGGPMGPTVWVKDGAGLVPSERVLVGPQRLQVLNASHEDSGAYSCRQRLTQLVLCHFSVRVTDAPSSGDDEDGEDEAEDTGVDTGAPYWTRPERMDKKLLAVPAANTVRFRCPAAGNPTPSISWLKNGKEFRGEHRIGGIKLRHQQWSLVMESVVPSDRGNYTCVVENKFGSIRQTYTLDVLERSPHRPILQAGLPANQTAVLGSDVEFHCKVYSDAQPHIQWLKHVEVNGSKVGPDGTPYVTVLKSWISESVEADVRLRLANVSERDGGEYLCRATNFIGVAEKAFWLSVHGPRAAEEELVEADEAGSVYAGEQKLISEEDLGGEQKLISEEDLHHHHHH
Assay: SPR Biacore, mAb captured on anti-hFc, 25C
Answers are plain numbers, in RU.

Please review the entries below; each comes with its answer.
BINDER	RESULT UNITS	90 nM mfFGFR3b.mmH Bind (RU)
H4H30061P (antibody, human IgG4 S228P, kappa, V domains shown) VH: EVQLVESGGGLAQPGGSLKLSCEASGFTFSDSAMHWVRQASGKGLEWVGRIRSKANSYATGYAASVKGRFTISRDDSKNMAFLEMNSLKTEDTAVYYCLRQTYGDPWGQGTLVTVSS VL: DVVMTQSPLSLSVTLGQPASISCRSSLSLVYSDGNNYLNWFQQRPGQSPRRLLYKVFNRDSGVPDRFSGSGSGTDFTLKISRVEAEDVGVYYCMQGTHWPWTFGQGTKVEIKR	RU	197
H4H30063P (antibody, human IgG4 S228P, kappa, V domains shown, HCVR 2, LCVR 10; also called REGN15684) VH: QVQLQESGPGLVKPSETLSLTCTVSGDSINSYFWSWIRQLPGKELEWIGHIYSSGSTRYNPSLQSRVTISIDTSKNQFSLKLSSVTAADTAVYYCARGASAVDYWGQGTLVTVSS VL: EIVLTQSPGTLSLSPGERATLSCRTSQSISSGYLAWYQQKPGQAPRLLIYGASRRATGIPDRFSGSGSGTDFTLTISRLEPEDFVVYYCQQYGSSPYTFGQGTKLEIKR	RU	212
H4H30071P (antibody, human IgG4 S228P, kappa, V domains shown, HCVR 42, LCVR 50) VH: QVQLQQSGPGLVKPSQTLSLTCAISGDSVSRNSAAWNWIRQSPSSGLEWLGRTYYRSKWFYDYAISVKSRITVNPDTSKNQFSLHLNSVTPEDTAVYYCARGYGGYEDYFDYWGQGTLVTVSS VL: DIQMTQSPSSVSASVGDRVTITCRASQGISSWLAWYQQKPGKAPKLLIYGASSLQSGVPSRFSGSGSGTDFTLTISSLQPEDFATYFCQQGSSFPYTFGQGTKLEIKR	RU	233
H4H30045P (antibody, human IgG4 S228P, kappa, V domains shown, HCVR 179, LCVR 187) VH: QVQLVQSGAEVKKPGASVKVSCKTSGYRFVNYGFSWVRQAPGQGLEWMGWISPYNGNTNYIQNLQDRITMTTDTSTNTAYMELTNLRSDDTAVYYCATLTGVHFDYWGQGTLVTVSS VL: AIQMTQSPSSLSASVGDRVTITCRASQGIRNDLGWYQQKPGKAPNLLIFETSRLQSGVPSRFSGSGSGTDFTLTINSLQPEDFATYYCLQDYNYPWTFGQGTKVEIKR	RU	71.9

Let's switch to this binder now.
Look up and report measured 90 nM mfFGFR3b.mmH Bind (RU) for this entry: H4H30076P (antibody, human IgG4 S228P, kappa, V domains shown) VH: EVQLVESGGGLVQPGGSLRLSCAASGFTVSSNYMSWVRQAPGKGLEWVSIIYSGGHTYYSDSVKGRFTISRHNSKNTLYLQMNSLRGGDTAVYYCARGYTSGWYGFDFWGQGTLVTVSS VL: DIQMTQSPSSVSASVGDRVTITCRASQGISTWLAWYQQKPGKAPKLLIYAASSLQSGVPSRFSGTGSGTDFTLTISSLQPEDFATYYCQQTNSFPWTFGQGTKVEIKR 180
